- System Name: HDGF PWWP domain (human, UniProt P51858 1-100)
- Sequence (P51858 1-100): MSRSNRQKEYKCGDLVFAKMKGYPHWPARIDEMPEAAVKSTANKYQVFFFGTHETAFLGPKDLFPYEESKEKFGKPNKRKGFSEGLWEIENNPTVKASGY
- Procedure Summary: PIFQ (Cy3 fluorescence quenching); 1 nM DNA; n=1.00; HDGF assays: 46 mM NaCl, 0.9 mM KCl, 3.3 mM Na2HPO4, 0.66 mM KH2PO4, pH 7.4; at least 1 h on ice; 1-10 nM Cy3 DNA, 10 pM-100 nM protein; RecA dsDNA control at pH 7.5
- Run Conditions: protein: recombinant; label: 5' Cy3
pKd: −log10 of the molar value.

- Binder: "15 bp SMYD1 dsDNA (5' Cy3) (dsDNA) DNA 1: TTCAAGACCAGCCTG DNA 2: CAGGCTGGTCTTGAA"
  pKd: 9.03
